Test Protocol: Volume of distribution at steady state in female CD1 mouse plasma at 1 mg/kg, iv measured after 24 hrs by LC/-MS/MS analysis
Assay type: ADME, organism-based
Protocol Conditions: read-out: Vdss

Smiles Input	Value Unit	Vd
COc1ccc(Oc2cc(NCCC(F)(F)F)c3ncc(-c4ccc(C(=O)NC5CC5)c(C)c4)n3n2)c(F)c1F	L/kg	2.7

###

Test system: HT-29
Test Protocol: Antiproliferative activity against human HT-29 cells assessed as cell growth inhibition incubated for 96 hrs by crystal violet staining
Protocol Conditions: HT-29, 96 h
pIC50: −log10 of the molar value.
Attribute Measured: pIC50

Compound	Attribute Measured	Result Number
COc1cc(S(C)(=O)=O)ccc1Nc1nc2ccc(-c3ccc(NC(=O)[C@H](C)c4ccc(F)cc4)cc3)cn2n1 [BAY-1161909]	pIC50	7.00

###

System: HCT-116
Test Protocol: Antiproliferative activity against human TP53 mutant HCT-116 cells assessed as cell growth inhibition incubated for 96 hrs by crystal violet staining
Protocol Conditions: HCT-116, 96 h
pIC50: −log10 of the molar value.

Smiles Input	pIC50
COc1cc(S(C)(=O)=O)ccc1Nc1nc2ccc(-c3ccc(NC(=O)[C@H](C)c4ccc(F)cc4)cc3)cn2n1	7.23

###

Test system: RPMI-7951
Test Protocol: Antiproliferative activity against human RPMI-7951 cells assessed as cell growth inhibition incubated for 96 hrs by crystal violet staining
Protocol Conditions: RPMI-7951, 96 h

Smiles Input	Value Unit	IC50
COc1cc(S(C)(=O)=O)ccc1Nc1nc2ccc(-c3ccc(NC(=O)[C@H](C)c4ccc(F)cc4)cc3)cn2n1	nM	280

###

System: OV-90
Test Protocol: Antiproliferative activity against human OV-90 cells assessed as cell growth inhibition incubated for 96 hrs by crystal violet staining
Protocol Conditions: OV-90, 96 h

Smiles Input	IC50 / nM
COc1cc(S(C)(=O)=O)ccc1Nc1nc2ccc(-c3ccc(NC(=O)[C@H](C)c4ccc(F)cc4)cc3)cn2n1	150

###

Test Protocol: Clearance in male CD1 mouse blood at 0.5 mg/kg, iv measured after 24 hrs by LC/-MS/MS analysis
Assay type: ADME, organism-based
Attribute Measured: clearance (mL/min/kg)

Smiles Input	Attribute Measured	Value Unit	Result Number
COc1cc(S(C)(=O)=O)ccc1Nc1nc2ccc(-c3ccc(NC(=O)[C@H](C)c4ccc(F)cc4)cc3)cn2n1	clearance	mL/min/kg	11.5

###

Test Protocol: Antiproliferative activity against human JMSU-1 cells assessed as cell growth inhibition incubated for 96 hrs by MTS assay
Assay type: functional, cell-based
Protocol Conditions: JMSU-1, 96 h
pIC50: −log10 of the molar value.

Smiles Input	pIC50
COc1cc(S(C)(=O)=O)ccc1Nc1nc2ccc(-c3ccc(NC(=O)[C@H](C)c4ccc(F)cc4)cc3)cn2n1	7.05

###

System: JJN-3
Test Protocol: Antiproliferative activity against human JJN-3 cells assessed as cell growth inhibition incubated for 96 hrs by crystal violet staining
Protocol Conditions: JJN-3, 96 h

Smiles Input	Value Unit	IC50
COc1cc(S(C)(=O)=O)ccc1Nc1nc2ccc(-c3ccc(NC(=O)[C@H](C)c4ccc(F)cc4)cc3)cn2n1	nM	100

###

Assay Target: Serine/threonine-protein kinase mTOR (Homo sapiens)
pKd: −log10 of the molar value.

Smiles Input	Assay Target	pKd
COc1cc(S(C)(=O)=O)ccc1Nc1nc2ccc(-c3ccc(NC(=O)[C@H](C)c4ccc(F)cc4)cc3)cn2n1	Serine/threonine-protein kinase mTOR (Homo sapiens)	4.40
